Assignment: determine reported IC50 for the given compounds.
target: hROMK (hKir1.1) (Homo sapiens (Human)); test: Thallium Flux Assay (ROMK channel functional thallium flux assay, FLIPR-Tetra); conditions: HEK293 cells stably expressing hROMK
# answer = value followed by unit

Entry Cc1c([C@@H](O)CN2CCC3(CCCN(C4=CC(=O)OC4)C3)CC2)ccc2c1COC2=O [Example 24] : reported IC50 = ?
0.24 µM

Suppose we examine the compound CC1=C(N2CCC3(CCN(C(CO)Cc4ccc5c(c4C)COC5=O)CC3)C2=O)COC1 (single isomer, unassigned) [Example 84A] ; what IC50 value has been reported?
0.06 µM

Record request: IC50 value, item Cc1c([C@@H](O)CN2C3CCC2CC2(CC(C)N(C4=CC(=O)OC4)C2=O)C3)ccc2c1COC2=O (single isomer, unassigned) [Example 40]
0.02 µM

What measured IC50 goes with Cc1c([C@@H](O)CN2C3CCC2CC2(CC(C)N(C4=CC(=O)OC4)C2=O)C3)ccc2c1COC2=O (stereo partly shown) [Example 39] ?
0.02 µM

Name the reported IC50 value associated with the compound CC1=C(N2CCC3(CCN(CC(O)c4ccc5c(c4F)COC5=O)CC3)C2=O)COC1=O (single isomer, unassigned) [Example 81]
0.19 µM

I am curious: what IC50 value has been reported for COC1CN(C[C@H](O)c2ccc3c(c2C)COC3=O)CCC12CCN(C1=C(C)C(=O)OC1)C2=O (stereo partly shown) [Example 83] ?
0.04 µM

What measured IC50 goes with CCc1c(C(O)CN2CCC3(CC2)CCN(C2=C(C)C(=O)OC2)C3=O)ccc2c1COC2=O (single isomer, unassigned) [Example 75] ?
0.03 µM

Fill in the blank: the reported IC50 of CC1=C(N2CCC3(CCN(C[C@H](O)c4cc5c(cc4C)C(=O)OC5)CC3)C2=O)COC1=O [Example 38] is ____.
0.02 µM

What does the record list as IC50 for CC1=C(N2C(=O)C3(CCN(C[C@H](O)c4ccc5c(c4C)COC5=O)CC3)CC2C)COC1=O (single isomer, unassigned) [Example 30] ?
0.02 µM

Which IC50 value belongs to CC1=CN(C2=C(C)C(=O)OC2)C(=O)C12CCN(C[C@H](O)c1ccc3c(c1C)COC3=O)CC2 [Example 73] ?
0.08 µM

I am curious: what IC50 value has been reported for CC1=C(N2CCC3(CCN([C@@H](C)[C@H](O)c4ccc5c(c4C)COC5=O)CC3)C2=O)COC1=O [Example 53A] ?
0.01 µM

For the compound shown here, CC1=C(N2C(=O)C3(CCN(C[C@H](O)c4ccc5c(c4C)COC5=O)CC3)CC2C)COC1=O (single isomer, unassigned) [Example 29] , give the reported IC50.
0.07 µM

Report IC50 for CC1=CC2(CCN(C[C@H](O)c3ccc4c(c3C)COC4=O)CC2)C(=O)N1C1=CC(=O)OC1 [Example 72] please.
0.03 µM

What does the record list as IC50 for CC1=C(N2CC(=O)C3(CCN(C[C@H](O)c4ccc5c(c4C)COC5=O)CC3)C2=O)COC1=O [Example 36] ?
0.03 µM

Bench note: what IC50 did CC1=C(N2CCC3(CCN(CCc4ccc5c(c4C)COC5=O)CC3)C2=O)COC1=O [Example 1] show?
0.01 µM

Query (compound): CO[C@@H](CN1CCC2(CC1)C[C@H](C)N(C1=CC(=O)OC1)C2=O)c1ccc2c(c1C)COC2=O [Example 2] ; field requested: IC50
0.05 µM

###

biological target: hROMK (hKir1.1) (Homo sapiens (Human), UniProt P48048); assay: Thallium Flux Assay (ROMK channel functional thallium flux assay, FLIPR-Tetra); conditions: HEK293 cells stably expressing hROMK
Sequence (P48048 whole entry): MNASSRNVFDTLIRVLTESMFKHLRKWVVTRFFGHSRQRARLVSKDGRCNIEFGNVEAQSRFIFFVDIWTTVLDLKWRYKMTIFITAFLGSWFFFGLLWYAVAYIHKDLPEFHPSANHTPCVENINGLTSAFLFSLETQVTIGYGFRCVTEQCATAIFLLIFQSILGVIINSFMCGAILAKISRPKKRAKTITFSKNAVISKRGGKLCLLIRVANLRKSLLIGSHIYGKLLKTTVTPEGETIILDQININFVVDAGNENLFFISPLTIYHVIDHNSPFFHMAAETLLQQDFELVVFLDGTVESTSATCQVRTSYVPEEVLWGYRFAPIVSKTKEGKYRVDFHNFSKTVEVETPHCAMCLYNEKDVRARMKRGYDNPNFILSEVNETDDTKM
observable: log10 IC50 (log10 of the value in nM)
The figures below represent log10 of IC50, where IC50 is stated in nM.

Request the reported log10 IC50 associated with CO[C@@H](CN1CCC2(CC1)CCN(C1=CC(=O)OC1)C2=O)c1ccc2c(c1C)COC2=O [Example 51]
2.49

Request the reported log10 IC50 associated with CNC(CN1CCC2(CC1)CCN(C1=C(C)C(=O)OC1)C2=O)c1ccc2c(c1C)COC2=O (stereo not drawn) [Example 60]
2.00

# query: log10 IC50 of entry CCc1c(C(O)CN2CCC3(CC2)CCN(C2=C(C)C(=O)OC2)C3=O)ccc2c1COC2=O (single isomer, unassigned) [Example 74]
2.30

Field request: log10 IC50 | item: CC1=C(N2CCC3(CCN(CC(NC4CCC4)c4ccc5c(c4C)COC5=O)CC3)C2=O)COC1=O (stereo not drawn) [Example 56]
2.57

Field request: log10 IC50 | item: Cc1c([C@@H](O)CN2CCC3(CC2)CC(C2CC2)N(C2=CC(=O)OC2)C3=O)ccc2c1COC2=O (single isomer, unassigned) [Example 69]
1.30

Report log10 IC50 for Cc1c([C@@H](O)CN2CCC3(CC2)CCN(C2=C(F)C(=O)OC2)C3=O)ccc2c1COC2=O [Example 22] please.
1.48

What value of measured log10 IC50 is listed for Cc1c([C@@H](O)CN2CCC3(CC2)CCN(C2=C(C4CC4)C(=O)OC2)C3=O)ccc2c1COC2=O [Example 31] ?
1.60

Please report the recorded log10 IC50 for CC1=C(N2CCC3(CCN(C(C)(C)C(O)c4ccc5c(c4C)COC5=O)CC3)C2=O)COC1=O (single isomer, unassigned) [Example 85A] .
2.08

Requested read-out: log10 IC50. Entry: CC1=C(N2C(=O)C3(CCN(C[C@H](O)c4ccc5c(c4C)COC5=O)CC3)CC2C2CC2)COC1=O (stereo partly drawn) [Example 70]
2.53

Looking for the measured log10 IC50 of Cc1c([C@@H](O)CN2CCC3(CC2)CC(C)N(C2=CC(=O)OC2)C3=O)ccc2c1COC2=O (stereo partly drawn) [Example 6] , can you help?
1.48

Report log10 IC50 for O=C1C=C(N2CCC3(CCN(CCc4ccc5c(c4)COC5=O)CC3)C2=O)CO1 [Example 3] please.
2.46

Given COCC1=C(N2CCC3(CCN(C[C@H](O)c4ccc5c(c4C)COC5=O)CC3)C2=O)COC1=O [Example 71] , state its recorded log10 IC50.
1.85

Could you share which log10 IC50 value was measured for CCC1CC2(CCN(C[C@H](O)c3ccc4c(c3C)COC4=O)CC2)C(=O)N1C1=CC(=O)OC1 (single isomer, unassigned) [Example 67] ?
1.30

Look up log10 IC50: CC1=C(N2CCC3(CCN(C[C@@H](O)c4ccc5c(c4C)COC5=O)CC3)C2=O)COC1=O [Example 8]
1.48

Can you share its log10 IC50? I mean this compound: CC1=C(N2CCC3(CC4COCC(C3)N4C[C@H](O)c3ccc4c(c3C)COC4=O)C2=O)COC1=O (stereo partly drawn) [Example 82]
2.26

What measured log10 IC50 goes with Cc1c([C@H](O)CN2C3CCC2CC2(CC(C)N(C4=CC(=O)OC4)C2=O)C3)ccc2c1COC2=O (single isomer, unassigned) [Example 42] ?
2.00

I have this compound here, CC1=C(N2CCC3(CCN(C[C@@H](O)c4cc5c(cc4C)C(=O)OC5)CC3)C2=O)COC1=O [Example 37] , and I need its recorded log10 IC50.
1.48

Bench note: what log10 IC50 did CC1=C(N2CCCC3(CCN(C[C@H](O)c4ccc5c(c4C)COC5=O)CC3)C2=O)COC1=O [Example 9] show?
1.00

Would you kindly share the measured log10 IC50 for Cc1c([C@H](O)CN2CCC3(CC2)CCN(C2=CC(=O)OC2)C3=O)ccc2c1COC2=O [Example 21] ?
2.57

Dear colleague, I am looking for the recorded log10 IC50 of the following compound: CCC1CC2(CCN(C[C@H](O)c3ccc4c(c3C)COC4=O)CC2)C(=O)N1C1=CC(=O)OC1 (single isomer, unassigned) [Example 66]
1.00

What does the record list as log10 IC50 for CC1=C(N2CCC3(CCN(C[C@H](O)c4ccc5c(c4C)COC5=O)CC3F)C2=O)COC1=O (single isomer, unassigned) [Example 28] ?
2.28
